TESTED TARGET: Luciferin 4-monooxygenase (Photinus pyralis)
PROTOCOL DETAILS: firefly luciferase enzyme inhibitors, primary screen, biochemical, luminescence, purified enzyme, 2006 set (AID 1141);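 note: cell-free assay with purified firefly luciferase at 100 ng per well in PBS; test concentration not given here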
CONDITION SUMMARY: SteadyGlo luminescence, 30 min, higher = more signal, called active from +8 up or from −8 down
Class TRUE: z-score at least -0.4. Class FALSE: z-score below -0.4.

Here's what some known entries look like.
COMPOUND | CLASS LABEL
Cc1ccc(S(=O)(=O)c2cc3oc2CC[C@@H](CO)NC(=O)N(C)Cc2cn(nn2)C[C@H](Cc2ccccc2)NC3=O)cc1 | FALSE
O=C1NC(=O)C2C1C=CC(C(O)C=Cc1ccc([N+](=O)[O-])cc1)N2Nc1ccccn1 (stereo not given) | FALSE
CC(C)N1CC=CC23O[C@@H]4/C=C\CCCOC(=O)C4[C@H]2C(=O)N(CCCCCO)[C@@H]3C1=O (stereo not given in full) | FALSE
COCCOC(=O)N1C(=O)[C@@]2(c3cc(C#CCC(C(=O)OC)C(=O)OC)ccc31)[C@H](c1ccccc1OCCO)N1[C@H](c3ccccc3)[C@H](c3ccccc3)OC(=O)[C@H]1[C@@H]2C(=O)N1CCCCCCC1 | TRUE
COc1cccc([C@@H]2[C@@H](C)CC[C@H]3C(=O)N(C)[C@@H](C(C)C)C(=O)N23)c1 | FALSE

**Query** Could you verify whether the entry `CC(=O)NCCCC[C@@H]1NC(=O)[C@@H]2C[C@H](C(=O)NCc3ccc(F)cc3)[C@H](c3cccc(OCCO)c3)N2C1=O` shows z-score of no less than -0.4?
**Result** FALSE

**Query** // next record `CO[C@H]1O[C@H](CO)[C@@H](OC(=O)Nc2ccccc2)[C@H](OC(=O)Nc2ccc3c(c2)OCO3)[C@@H]1OC(=O)Nc1ccc2c(c1)OCO2`
**Result** FALSE

**Query** // next record C=CCC(OC(C)=O)[C@@H]1[C@@H](N(Cc2ccc(-c3cccc(C(F)(F)F)c3)o2)C(=O)Cc2ccc(F)cc2)c2cc(OCCCO)ccc2N1C(=O)c1ccc(-c2ccccc2)cc1 (stereo not given in full)
**Result** TRUE

**Query** // next record `CO[C@H]1COC(=O)[C@@H](C)COC(=O)[C@H](Cc2ccccc2)NC(=O)CC=C[C@H]1C`
**Result** FALSE

**Query** // next record `COCCOC(=O)N1C(=O)[C@@]2(c3cc(C#CCNC(N)=O)ccc31)[C@H](c1ccc(OCCO)cc1)N1[C@H](c3ccccc3)[C@H](c3ccccc3)OC(=O)[C@H]1[C@@H]2C(=O)Nc1nc2ccccc2s1`
**Result** FALSE
